Cited source for all entries: patent USRE33375E

Test: Acute animal toxicity / survival after injection
Conditions: mouse, in vivo, ip, 15 mg/kg
Method: In the next study 5-fluorouracil (5-FU) (Sigma Chem. Co., St. Louis, Mo.) with and without epinephrine (Sigma) suspended in saline by sonication (60 mg/ml) and mixed 1:1 with bovine collagen (BC) (Collagen Corp., Palo Alto, Calif.) (36 mg/ml) or normal saline. The subjects were 25 gm 12 week-old female C3H/He mice (Bantin and Kingman, Fremont, Calif.) bearing the transplatable experimental murine fibrosarcoma propagated intradermally as previously described. […]
Counter-ions that a name gives are not always drawn.
measured attribute: survival (%)

INSERT INTO assay_data (molecule, measured_attribute, meas_value) VALUES
  ('COc1cccc2c1C(=O)c1c(O)c3c(c(O)c1C2=O)C[C@@](O)(C(=O)CO)C[C@@H]3O[C@H]1C[C@H](N)[C@H](O)[C@H](C)O1 [Free ADM, doxorubicin-HCl]', 'survival', 25);
